Kindly state Ki for each of the entries shown.
Please answer in the form of a number followed by its unit of measurement.

Ask: Field: Ki (OX2R (Homo sapiens (Human))). Entry: C[C@@H]1CC[C@@H](COc2ccc(F)cn2)CN1C(=O)c1cc(F)ccc1-c1ncccn1 [Compound 1-19]
Result: 0.53 nM

Ask: Field: Ki (OX2R (Homo sapiens (Human))). Entry: C[C@@H]1CC[C@@H](COc2ccc(F)cn2)CN1C(=O)c1ncccc1-c1ccccc1 [Compound 1-38]
Result: 1.9 nM

Ask: Field: Ki (OX2R (Homo sapiens (Human))). Entry: Cc1ccc(-c2ccccn2)c(C(=O)N2C[C@H](COc3ccc(F)cn3)CC[C@H]2C)c1 [Compound 1-15]
Result: 0.35 nM

Ask: Field: Ki (OX2R (Homo sapiens (Human))). Entry: Cc1ccc(-c2cn[nH]c2)c(C(=O)N2C[C@H](COc3ccc(F)cn3)CC[C@H]2C)c1 [Compound 1-21]
Result: 0.48 nM

Ask: Field: Ki (OX2R (Homo sapiens (Human))). Entry: C[C@@H]1CC[C@@H](COc2ccc(F)cn2)CN1C(=O)c1ccccc1-c1ncccn1 [Compound 1-28]
Result: 0.67 nM

Ask: Field: Ki (OX2R (Homo sapiens (Human))). Entry: C[C@@H]1CC[C@@H](COc2ccc(F)cn2)CN1C(=O)c1c(F)cccc1-c1ncccn1 [Compound 1-34]
Result: 0.68 nM
